System: HEK293
Test: Cytotoxic Profiling of Annotated Libraries Using Quantitative High-Throughput Screening (AID 1296008); note: % is set by controls: 0 for no effect and ±100 for the full control effect; nearly all actives have a fitted effect of over 60% in size
Conditions: Five cell lines viability, CellTiter-Glo ATP luminescence, 48-72 h; stronger effect = lower value
Experimental: Cell-based phenotypic screening is a commonly used approach to discover biological pathways, novel drug targets, chemical probes and high-quality hit-to-lead molecules. […] A pintool (Kalypsys) was used to transfer 23 nL of compound solution to the 1536-well assay plates. […] Plates were left at room temperature for 10 min before imaging the ATP-coupled luminescence using a ViewLux microplate imager (PerkinElmer, Waltham, MA).
Results filed as inconclusive are left out. Activity calls are given as the source filed them. Calls come from the whole dose curve; as a rule, active = well fitted inhibition curve with a large enough effect; inconclusive = small, poorly fitted or top-dose-only effect; inactive = flat fitted curve, though single readings scatter.
A collection of molecules and their measured max response

O=C1N(c2ccccc2)c2ccccc2C1(Cc1ccncc1)Cc1ccncc1
2.06% (inactive)
C[C@](N)(Cc1ccc(O)c(O)c1)C(=O)O
-6.72% (inactive)
CC1COc2c(N3CCN(C)CC3)c(F)cc3c(=O)c(C(=O)O)cn1c23 (stereo unspecified)
-5.36% (inactive)
COc1ccc(C2CNC(=O)C2)cc1OC1CCCC1 (stereo unspecified)
0.111% (inactive)
CN1C(C(=O)Nc2ccccn2)=C(O)c2ccccc2S1(=O)=O
3.98% (inactive)

Next molecule, max response to be filled in.
*Q* # value lookup — system HEK293, readout max response, item O=c1c(-c2ccc(O)cc2)coc2cc(O)cc(O)c12
*A* -3.7% (inactive)
